Where do the numbers come from? From PubChem BioAssay (NCI).

- Tested on: IGROV1 ovarian
- TEST PROTOCOL: NCI-60 one-dose screen, 48 h (100 = growth as untreated, 0 = no growth, -100 = all killed)
- CONDITION DETAILS: 10 µM unless noted
The panel holds about 83,000 compounds, 20% with a hit somewhere; the sample as a whole holds those more often.
Exam item: assign TRUE to entries whose growth is below 80% and FALSE to entries at or above 80%. Note that a value of exactly 80% receives FALSE.

// known answers, use as guide
Prompt: growth strictly < 80% for this molecule? `Nc1cc(N)c(N=Nc2ccc(S(=O)(=O)O)cc2)cc1N=Nc1ccc(-c2ccc(N=Nc3ccc(O)c(C(=O)O)c3)cc2)cc1`
Response: FALSE

Prompt: growth strictly < 80% for this molecule? `CC(C)CSc1ncnc2nc[nH]c12`
Response: TRUE

Prompt: growth strictly < 80% for this molecule? `N#C/C(C(=O)c1ccccc1)=C1/C(=O)Nc2ccccc21`
Response: FALSE

Prompt: growth strictly < 80% for this molecule? `COc1cc(C)cc2oc3oc(=O)c(C(=O)c4cc5cc(Br)ccc5o4)cc3c(=O)c12`
Response: FALSE

Prompt: growth strictly < 80% for this molecule? `CCCCCn1sc(=O)n(Cc2ccc(CNC(=O)OCc3ccc4cccc(O)c4n3)cc2)c1=O`
Response: TRUE

Prompt: growth strictly < 80% for this molecule? `CCN(CC)CCCOc1ccc2c(c1)O/C(=C\c1cccc(OC)c1)C2=O`
Response: FALSE

Prompt: growth strictly < 80% for this molecule? `Brc1ccc(-c2nnc3c4[nH]ccc4ncn23)cc1`
Response: TRUE

Prompt: growth strictly < 80% for this molecule? `CC(C)C1=NOC(=O)C1=Cc1cn(-c2ccccc2)nc1-c1ccc(Br)cc1`
Response: TRUE

Next:
Prompt: growth strictly < 80% for this molecule? `CCOC(=O)COc1c(C)cc(SSc2cc(C)c(OCC(=O)OCC)c(C)c2)cc1C`
Response: FALSE
